Listed compounds paired with reported Activity
Test system: Mus musculus
assay-explanation: Thrombotic toxicity in ICR mouse assessed as tail bleeding time at 1.3 mmol/kg, ip after 15 mins
Assay type: organism-based
recorded-conditions: in vivo, 0.25 h
property-label: Activity (s)

{"structure-smiles-string": "CC1(C)N=C(c2cccc(O)c2)N(O)C1(C)C", "property-label": "Activity", "recorded-value": 119}
{"structure-smiles-string": "CC1(C)N=C(c2ccc3c(c2)OCO3)N(O)C1(C)C", "property-label": "Activity", "recorded-value": 119}
{"structure-smiles-string": "CC1(C)N=C(c2ccc(O)cc2)N(O)C1(C)C", "property-label": "Activity", "recorded-value": 118}
{"structure-smiles-string": "CC1(C)N=C(c2ccccc2)N(O)C1(C)C", "property-label": "Activity", "recorded-value": 119}
{"structure-smiles-string": "CC1(C)N=C(c2ccc(Cl)cc2)N(O)C1(C)C", "property-label": "Activity", "recorded-value": 119}
{"structure-smiles-string": "Cc1ccc(C2=NC(C)(C)C(C)(C)N2O)cc1", "property-label": "Activity", "recorded-value": 118}
{"structure-smiles-string": "COc1ccc(C2=NC(C)(C)C(C)(C)N2O)c(OC)c1", "property-label": "Activity", "recorded-value": 118}
{"structure-smiles-string": "CC1(C)N=C(c2cccc([N+](=O)[O-])c2)N(O)C1(C)C", "property-label": "Activity", "recorded-value": 118}

---

Test system: Mus musculus
assay-explanation: Thrombotic toxicity in ICR mouse assessed as tail bleeding time at 1.3 mmol/kg, ip after 30 mins
Type: organism-based
recorded-conditions: in vivo, 0.5 h
Let's look at some compounds and their measured Activity.

{"structure-smiles-string": "CC1(C)N=C(c2ccc3c(c2)OCO3)N(O)C1(C)C", "Activity, s": 119}
{"structure-smiles-string": "Cc1ccc(C2=NC(C)(C)C(C)(C)N2O)cc1", "Activity, s": 117}
{"structure-smiles-string": "CC1(C)N=C(c2ccc(Cl)cc2Cl)N(O)C1(C)C", "Activity, s": 119}
{"structure-smiles-string": "CC1(C)N=C(c2cccc([N+](=O)[O-])c2)N(O)C1(C)C", "Activity, s": 119}
{"structure-smiles-string": "COc1ccc(C2=NC(C)(C)C(C)(C)N2O)cc1OC", "Activity, s": 118}

---

Tested on: Mus musculus
assay-explanation: Thrombotic toxicity in ICR mouse assessed as tail bleeding time at 1.3 mmol/kg, ip after 60 mins
Format: organism-based
recorded-conditions: in vivo, 1 h
Below: a set of entries, each annotated with reported Activity.
property-label: Activity

{"structure-smiles-string": "CC1(C)N=C(c2ccc(O)cc2)N(O)C1(C)C", "property-label": "Activity", "recorded-value": "119 s"}
{"structure-smiles-string": "CC1(C)N=C(c2ccc3c(c2)OCO3)N(O)C1(C)C", "property-label": "Activity", "recorded-value": "118 s"}
{"structure-smiles-string": "CC1(C)N=C(c2ccc(Cl)c(Cl)c2)N(O)C1(C)C", "property-label": "Activity", "recorded-value": "117 s"}
{"structure-smiles-string": "Cc1ccc(C2=NC(C)(C)C(C)(C)N2O)cc1", "property-label": "Activity", "recorded-value": "119 s"}
{"structure-smiles-string": "CC1(C)N=C(c2ccc(Br)cc2)N(O)C1(C)C", "property-label": "Activity", "recorded-value": "120 s"}
{"structure-smiles-string": "COc1ccc(C2=NC(C)(C)C(C)(C)N2O)cc1O", "property-label": "Activity", "recorded-value": "119 s"}
{"structure-smiles-string": "CC1(C)N=C(c2ccccc2)N(O)C1(C)C", "property-label": "Activity", "recorded-value": "117 s"}
{"structure-smiles-string": "CC1(C)N=C(c2cccc([N+](=O)[O-])c2)N(O)C1(C)C", "property-label": "Activity", "recorded-value": "117 s"}
{"structure-smiles-string": "CN(C)c1ccc(C2=NC(C)(C)C(C)(C)N2O)cc1", "property-label": "Activity", "recorded-value": "119 s"}
{"structure-smiles-string": "CC1(C)N=C(c2ccccc2O)N(O)C1(C)C", "property-label": "Activity", "recorded-value": "118 s"}
{"structure-smiles-string": "COc1cc(C2=NC(C)(C)C(C)(C)N2O)ccc1O", "property-label": "Activity", "recorded-value": "117 s"}
{"structure-smiles-string": "CC1(C)N=C(c2ccc([N+](=O)[O-])cc2)N(O)C1(C)C", "property-label": "Activity", "recorded-value": "117 s"}
{"structure-smiles-string": "CC1(C)N=C(c2cccc(O)c2)N(O)C1(C)C", "property-label": "Activity", "recorded-value": "119 s"}
{"structure-smiles-string": "CC1(C)N=C(c2ccccc2[N+](=O)[O-])N(O)C1(C)C", "property-label": "Activity", "recorded-value": "118 s"}

Attribution: ChEMBL document CHEMBL1156678
